# Test system: K-562 leukemia
# Assay Procedure: NCI tumour cell line growth inhibition, 48 h; in the data active = GI50 below about 0.43 µM; inactive = the rest
Please reply with one of these outcomes: true (1) for active, false (0) for inactive

For orientation, consider the following solved cases.
COc1ccc(CCN2CCC(CN(C)Cc3cnn(-c4ccccc4)c3)CC2)cc1	false (0)
O=C1CC/C(=C/COc2cc(=O)oc3ccccc23)O1	false (0)
COc1cc(Cl)cc(-c2nn(-c3cccc(NC(=O)Nc4ccc(Cl)c(Cl)c4)c3)cc2-c2ccncc2)c1	false (0)
NC1(Cc2ccc(Cl)cc2)CCN(c2ncnc3[nH]ccc23)CC1	false (0)
N#CC(C#N)=C/C=C(\Sc1ccc(F)cc1Cl)c1ccc(Cl)cc1	false (0)

For COc1c(N2CCN(CN3C(=O)C(=O)c4cc(Cl)ccc43)C(C)C2)c(F)cc2c(=O)c(C(=O)O)cn(C3CC3)c12 (centres undefined) , which call appears in the assay record?
false (0)

For `Cc1nc2cc(Nc3nc(Nc4ccc(F)cc4)nc(N4CCOCC4)n3)ccc2n1Cc1ccccc1` , which call appears in the assay record?
false (0)

These measurements were taken from PubChem BioAssay (NCI).
